These measurements were taken from ChEMBL document CHEMBL1156734.

# TEST_SYSTEM: Melanin-concentrating hormone receptor 1 (Homo sapiens, UniProt Q99705)
# Sequence (Q99705 whole entry): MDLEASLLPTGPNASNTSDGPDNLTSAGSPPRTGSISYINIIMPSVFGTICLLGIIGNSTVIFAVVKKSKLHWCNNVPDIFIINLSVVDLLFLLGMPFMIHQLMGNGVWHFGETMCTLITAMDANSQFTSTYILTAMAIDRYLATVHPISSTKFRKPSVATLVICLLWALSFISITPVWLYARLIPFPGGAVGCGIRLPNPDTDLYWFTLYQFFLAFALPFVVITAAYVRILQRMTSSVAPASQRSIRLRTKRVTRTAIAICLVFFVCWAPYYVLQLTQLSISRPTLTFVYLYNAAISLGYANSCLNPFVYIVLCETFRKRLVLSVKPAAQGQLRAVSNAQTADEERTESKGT
# ASSAY_PROCEDURE: Antagonist activity at human MCHR1 expressed in HEK293 cells assessed as [35S]GTPgammaS accumulation
# Format: functional, cell-based
pIC50: −log10 of the molar value.
EXPERIMENTAL_ENDPOINT: pIC50

INSERT INTO assay_data (compound_string, test_system, recorded_number) VALUES
  ('COc1ccc(-n2ccc(CN3CCC(NC(=O)COc4cccc(Cl)c4)CC3)c2)cc1', 'Melanin-concentrating hormone receptor 1 (Homo sapiens, UniProt Q99705)', 7.05),
  ('Fc1ccc(-c2cc(C3CCN(Cc4ccn(-c5ccc(C(F)(F)F)cc5)c4)CC3)no2)cc1', 'Melanin-concentrating hormone receptor 1 (Homo sapiens, UniProt Q99705)', 7.17),
  ('O=C(COc1cccc(Cl)c1)NC1CCN(Cc2ccc(-c3ccc(OC(F)(F)F)cc3)o2)CC1', 'Melanin-concentrating hormone receptor 1 (Homo sapiens, UniProt Q99705)', 6.99);
